- protocol: Subplantar edema caused by carrageenan (antiinflammatory activity)
- Assay type: in vivo
- particulars: rats, oral; paw volume 0-5 h; acetylsalicylic acid 250, ibuprofen 100, paracetamol 100, diflunisal 25, MR 713 25 mg/kg
Answer each item with its documented AREA % Inhibition vs. Control.
The response must be a number in % with no trailing unit.

Ask: # get_value(readout='AREA % Inhibition vs. Control', item= `O=C(O)c1cc(-c2ccc(F)cc2F)ccc1O` )
Result: 30.0

Ask: What does the record list as AREA % Inhibition vs. Control for `CC(=O)Oc1ccccc1C(=O)O` ?
Result: 33.0

Ask: What AREA % Inhibition vs. Control value was documented for this molecule, `CC(=O)Nc1ccc(O)cc1` ?
Result: 10.0

Ask: Request the reported AREA % Inhibition vs. Control associated with CC(C)Cc1ccc(C(C)C(=O)O)cc1 (centres unmarked)
Result: 40.0

Ask: What does the data say about its AREA % Inhibition vs. Control? Entry: `O=C(O)COc1ccc(-c2ccc(F)cc2F)cc1`
Result: 31.0

----------
Can you tell me AREA Absolute Value for the items I'm about to list?
- protocol: Subplantar edema caused by carrageenan (antiinflammatory activity)
- Assay type: in vivo
- particulars: rats, oral; paw volume 0-5 h; acetylsalicylic acid 250, ibuprofen 100, paracetamol 100, diflunisal 25, MR 713 25 mg/kg

Ask: Quick one: AREA Absolute Value for `O=C(O)c1cc(-c2ccc(F)cc2F)ccc1O` ?
Result: 190.7

Ask: What value of measured AREA Absolute Value is listed for `CC(=O)Nc1ccc(O)cc1` ?
Result: 245.7

Ask: Look up AREA Absolute Value for this molecule: `O=C(O)COc1ccc(-c2ccc(F)cc2F)cc1`
Result: 186.4

Ask: If you can, please state the reported AREA Absolute Value value of CC(C)Cc1ccc(C(C)C(=O)O)cc1 (centres unmarked) .
Result: 163.7

Ask: Reported AREA Absolute Value for `CC(=O)Oc1ccccc1C(=O)O` : what is it?
Result: 182.4

----------
- protocol: Acute toxicity, oral
- Format: in vivo
- particulars: mouse, in vivo, mice, body weight, read-out: DL50 (the source's name)
parameterMeasured: LD50
Form entry: enter the amount, then its unit.

Ask: Fill in: LD50 of O=C(O)COc1ccc(-c2ccc(F)cc2F)cc1 [MR 713] is ___
Result: 790 mg/kg

----------
- particulars: rat, in vivo, po, 25 mg/kg
parameterMeasured: Average Size of Ulcer in mm (mm)
Please give a number only; it is taken to be in mm.

Ask: What value of measured Average Size of Ulcer in mm is listed for CC(=O)Oc1ccccc1C(=O)O [acetylsalicylic acid, acetyl salicylic acid] ?
Result: 3.7

Ask: Could you share which Average Size of Ulcer in mm value was measured for CC(=O)Nc1ccc(O)cc1 [Paracetamol, p-acetylaminophenol] ?
Result: 0.6

Ask: For the molecule O=C(O)COc1ccc(-c2ccc(F)cc2F)cc1 [MR 713] , what Average Size of Ulcer in mm is on record?
Result: 0.3

Ask: Quick one: Average Size of Ulcer in mm for CC(C)Cc1ccc(C(C)C(=O)O)cc1 (centres unmarked) [Ibuprofen, ibuprofen] ?
Result: 2.3

Ask: Consider the molecule shown here: O=C(O)c1cc(-c2ccc(F)cc2F)ccc1O [Diflunisal, diflunisal] What is its recorded Average Size of Ulcer in mm?
Result: 0.7
